test system: U2OS; experiment: Incucyte cell viability with U2OS; type: toxicity, cell-based; settings: human, 24 h, 10 µM, compound concentration 10 uM, replicate number 1; further: unitless GR value; below 1 slowed growth and below 0 cell loss
Observable: Growth Rate

>>> result("CC(=O)Nc1cccc(-n2c(=O)n(C3CC3)c(=O)c3c(Nc4ccc(I)cc4F)n(C)c(=O)c(C)c32)c1")
0.9
>>> result("CC(=O)O[C@H]1C(=O)[C@@]2(C)[C@H]([C@H](OC(=O)c3ccccc3)[C@]3(O)C[C@H](OC(=O)[C@H](O)[C@@H](NC(=O)c4ccccc4)c4ccccc4)C(C)=C1C3(C)C)[C@]1(OC(C)=O)CO[C@@H]1C[C@@H]2O")
-0.07
>>> result("CCc1ccccc1C(=O)Nc1n[nH]c2c(C)c(F)c(C3C(C#N)=C(C)N(C)C(C)=C3C#N)cc12")
0.9
>>> result("CNC(=O)COc1cc2cc(Nc3nc(N4C[C@H](C)C[C@H](C)C4)ncc3Cl)ccc2n(C)c1=O")
0.95

====

test system: Fibroblast; test: Incucyte cell viability with human fibroblast; type: toxicity, cell-based; details: 0 h, 10 µM, compound concentration 10 uM, replicate number 1; further: unitless GR value; below 1 slowed growth and below 0 cell loss
Entries and their Growth Rate
Observable: Growth Rate

>>> result("CN(C)CCCNc1ccnc(Nc2cccc(Cl)c2)n1")
-0.99
>>> result("CS(=O)(=O)CCNCc1ccc(-c2ccc3ncnc(Nc4ccc(OCc5cccc(F)c5)c(Cl)c4)c3c2)o1 [LAPATINIB]")
0.88
>>> result("c1ccc2c(c1)SCc1c-2[nH]c2ccccc12")
-1
>>> result("COc1c(-c2cn(C3CCC(=O)NC3=O)nn2)csc1C(=O)N1CCCC1 (stereo not given)")
-1
>>> result("CCn1c(-c2nonc2N)nc2c(C#CC(C)(C)O)ncc(OCC3CCCNC3)c21 (stereo not given)")
-0.85

====

Entries and their Growth Rate
system: U2OS; test: Incucyte cell viability with U2OS; type: toxicity, cell-based; conditions: human, 0 h, 10 µM, compound concentration 10 uM, replicate number 1; further: unitless GR value; below 1 slowed growth and below 0 cell loss
Observable: Growth Rate

>>> result("COc1cc(Nc2ccc([N+](=O)[O-])cc2C(=O)O)cc2ccccc12")
0.77
>>> result("CC(C)(C[C@H]1CN(S(=O)(=O)c2cccc(C(F)(F)F)c2)c2cc(-c3cc(F)cc(OC(F)F)c3)ccc2O1)C(=O)O")
0.78
>>> result("CN1CCN(C(=O)c2ccc3cc2OCCOCCNc2ccn4ncc-3c4n2)CC1")
-0.07
>>> result("O=C(Nc1ccccc1Br)N[C@@H]1CCN(c2ccc(C(F)(F)F)cn2)C1")
-0.73
>>> result("O=C(N[C@H](Cc1ccccc1)C(=O)O)c1cccc(OCc2cccnc2)c1.O=CO")
0.75
>>> result("COc1cc2ncnc(N[C@H](C)c3ccccc3)c2cc1OC1CCN(S(C)(=O)=O)CC1.Cl")
0.65
>>> result("C[C@@H]1OCC2(CCN(c3cnc(Sc4ccnc(N)c4Cl)c(N)n3)CC2)[C@@H]1N")
0.89
>>> result("CC1(C)Oc2ncnc(N)c2N=C1c1ccc([C@H]2CC[C@H](CC(=O)O)CC2)cc1")
0.58
>>> result("CNC(=O)c1ccc(C)c(-n2c(C)cc(OCc3ccc(F)cc3F)c(Br)c2=O)c1")
-0.97
>>> result("CN(CC(=O)Nc1ccc(F)c(F)c1F)C(=O)c1ccc2c(c1)OCCO2")
-0.71
>>> result("CCCCCNC(=O)N1CCC(CN(Cc2ccc(Cl)cc2)Cc2ccc([N+](=O)[O-])s2)C1 (centres undefined)")
0.35
>>> result("CC(C=CC1=C(C)CCCC1(C)C)=CC=CC(C)=CC(=O)O")
0.58
>>> result("CN[C@@H](C)C(=O)N[C@H](C(=O)N1CCC[C@H]1C(=O)Nc1snnc1-c1ccccc1)C1CCCCC1")
0.23
>>> result("Nc1nc2cc(-c3cc(Cl)ccc3Oc3cc(F)c(S(=O)(=O)Nc4ncns4)cc3F)ccc2[nH]1")
-0.72
>>> result("CC/C(=C(\\c1ccccc1)c1ccc(OCCN(C)C)cc1)c1ccccc1.O=C(O)CC(O)(CC(=O)O)C(=O)O [TAMOXIFEN CITRATE]")
-0.22
>>> result("Cc1noc(C)c1-c1cnc2c(-c3ccc(C(=O)O)cc3)cn([C@@H](C)c3ccccn3)c2c1")
-0.72
>>> result("Cl.O=C(NCCN1CCC2(CC1)C(=O)NCN2c1cccc(F)c1)c1ccc2ccccc2c1")
-0.95
>>> result("Cc1ccc(C(=O)Nc2cc(N3CCN(C)CC3)cc(C(F)(F)F)c2)cc1-n1cc(-c2cnn(C)c2C)nn1.Cl")
0.94
>>> result("COc1cc(C(=O)N2CC[C@@H](O)[C@@H](N)C2)cc2nc(-c3cc4ccccc4n3CC3CC3)n(C)c12.Cl")
-0.93
>>> result("COc1cc2ncnc(Nc3cccc(O)c3)c2cc1OC")
-0.82
>>> result("CC(C)(O)C(=O)N1CCN(c2ccc(C(F)(F)F)c(C3=C(c4c[nH]c5ccccc45)C(=O)NC3=O)c2)CC1")
-0.61
>>> result("O=C(O)CCn1c2c(c3ccccc31)C[C@H](NS(=O)(=O)c1ccc(F)cc1)CC2")
0.53
>>> result("C[C@H](CCOc1cccc(CC(=O)O)c1)N(Cc1cccc(C(F)(F)F)c1Cl)CC(c1ccccc1)c1ccccc1.Cl")
0.53
>>> result("COc1ccc(CC(=O)NC(N/C(=N/C#N)Nc2cccc3ncccc23)C(C)(C)C)cc1OC (centres undefined)")
0.85
>>> result("Cc1ccc(NS(=O)(=O)c2ccc3c(c2)C2C=CCC2C(c2ccc(C(=O)O)cc2)N3)cc1C (centres undefined)")
0.88
>>> result("CC(C)N(C(=O)C1CCOCC1)c1cc(F)c(Oc2ncc(Cn3nccn3)cc2C(F)(F)F)cc1C(=O)O")
0.83
>>> result("C=C(F)C(=O)N1CCN(c2nc(OC[C@@H]3CCCN3C)nc3c2CCN(c2cccc4cccc(Cl)c24)C3)C[C@@H]1CC#N")
-1
>>> result("Cc1nccc(COC(=O)N2C[C@@H]3[C@@H](CNC(=O)c4ccc5[nH]nnc5c4)[C@@H]3C2)n1")
0.85
>>> result("O=C1c2c(Br)c(Br)c(Br)c(Br)c2C(=O)N1c1ncc[nH]1")
0.58
>>> result("Cc1cc2ncnn2cc1Nc1ncc2c(n1)n(C1CCOCC1)c(=O)n2C")
0.4
>>> result("CNc1nc(-c2cc(C(=O)N3CCN(Cc4ccc(Cl)cc4)CC3)c(Cl)cn2)cs1")
-0.54
>>> result("O=C1Nc2ccc(I)cc2/C1=C/c1cc(Br)c(O)c(Br)c1")
-0.98
>>> result("C[C@@H](NC(=O)Cc1ccc(C2CC2)cc1)c1ccc(OCC(F)(F)F)cn1")
-0.06
>>> result("Cn1c(C2(NC(=O)c3ccc(NCC4CCCCC4)nc3)CCC2)nc2ccc(/C=C/C(=O)O)cc21")
0.79
